# assayProtocol: Apparent clearance in mouse at 10 mg/kg
# Assay type: ADME, organism-based
# conditionLabel: in vivo
resultType: CL/F

Reported CL/F ( `CN1Cc2ccccc2CN2CC[C@@]1(c1ccccc1)C2` ) = 264 mL/min/kg

* * *

# assayProtocol: Clearance in mouse at 10 mg/kg
# Format: ADME, organism-based
# conditionLabel: in vivo
resultType: clearance (mL/min/kg)
Field format: number, assumed mL/min/kg, no unit text.

Reported clearance ( `CN1Cc2ccccc2CN2CC[C@@]1(c1ccccc1)C2` ) = 261

* * *

# assayProtocol: Lipophilicity, log D of compound
# Assay type: physicochemical
# conditionLabel: octanol/water
resultType: logD
Give only the figure.

Reported logD ( `CN1Cc2ccccc2CN2CC[C@@]1(c1ccccc1)C2` ) = 3

* * *

# assayProtocol: Drug concentration in ddY mouse brain at 30 mg/kg, sc; note: time not given here
# Format: ADME, organism-based
# conditionLabel: in vivo, read-out: Ct
Cut-off 8 µM on concentration, inclusive. At or above means yes; below means no.

Reference set, count: 5
INSERT INTO measurements (testsmiles, categorylabel) VALUES
  ('CN(C)C(=O)CN1Cc2ccccc2CN2CC[C@@]1(c1ccccc1)C2', 'no'),
  ('CCN1Cc2ccccc2CN2CC[C@@]1(c1ccccc1)C2', 'yes'),
  ('O=C1N[C@@]2(c3ccccc3)CCN(Cc3ccccc31)C2', 'yes'),
  ('COc1ccc2c(c1)CN1CC[C@@](c3ccccc3)(C1)N(C)C2', 'yes'),
  ('COc1cccc2c1CN(C)[C@@]1(c3ccccc3)CCN(C2)C1', 'no');

Attention now shifts to the item below.
# check: concentration of `COc1ccc2c(c1)CN(C)[C@@]1(c3ccccc3)CCN(C2)C1` is greater than or equal to 8 µM
no

* * *

# assayProtocol: Plasma concentration in ddY mouse at 30 mg/kg, sc; note: time not given here
# Type: ADME, organism-based
# conditionLabel: in vivo
For each record, check the reported concentration: if it is below 2000 nM write True, else write False.

Reference set, count: 4
INSERT INTO measurements (testsmiles, categorylabel) VALUES
  ('O=C1N[C@]2(c3ccccc3)CCN(Cc3ccccc31)C2', 'False'),
  ('CN1Cc2ccccc2CN2CC[C@@]1(c1ccccc1)C2', 'True'),
  ('CN1Cc2c(O)cccc2CN2CC[C@@]1(c1ccccc1)C2', 'True'),
  ('CN1Cc2ccc(O)cc2CN2CC[C@@]1(c1ccccc1)C2', 'True');

# strict comparison: is reported concentration < 2000 nM? input = `CCN1Cc2ccccc2CN2CC[C@@]1(c1ccccc1)C2`
True

# strict comparison: is reported concentration < 2000 nM? input = `c1ccc([C@@]23CCN(Cc4ccccc4CN2)C3)cc1`
False

# strict comparison: is reported concentration < 2000 nM? input = `CCC(=O)N1Cc2ccccc2CN2CC[C@@]1(c1ccccc1)C2`
False

# strict comparison: is reported concentration < 2000 nM? input = `CN(C)C(=O)CN1Cc2ccccc2CN2CC[C@@]1(c1ccccc1)C2`
False

# strict comparison: is reported concentration < 2000 nM? input = `CC(=O)N1Cc2ccccc2CN2CC[C@@]1(c1ccccc1)C2`
False

* * *

# assayProtocol: Oral bioavailability in mouse at 10 mg/kg
# Format: ADME, organism-based
# conditionLabel: in vivo
resultType: bioavailability (%)
Field format: number, assumed %, no unit text.

Reported bioavailability ( `CN1Cc2ccccc2CN2CC[C@@]1(c1ccccc1)C2` ) = 55.2

* * *

# assayProtocol: Protein binding in mouse
# Type: ADME, organism-based
# conditionLabel: in vivo, read-out: PB (converted)
resultType: fraction unbound
Give only the figure.

Reported fraction unbound ( `CN1Cc2ccccc2CN2CC[C@@]1(c1ccccc1)C2` ) = 0.16

* * *

# assayProtocol: Toxicity in sc dosed ddY mouse assessed as effect on locomotor activity
# Assay type: organism-based
# conditionLabel: in vivo
For each record, check the reported ID50: if it is below 20 mg/kg write Criterion met, else write Criterion not met.

Reference set, count: 4
INSERT INTO measurements (testsmiles, categorylabel) VALUES
  ('CN1Cc2cc(O)ccc2CN2CC[C@@]1(c1ccccc1)C2', 'Criterion met'),
  ('COc1ccc2c(c1)CN(C)[C@@]1(c3ccccc3)CCN(C2)C1', 'Criterion met'),
  ('OCCN1Cc2ccccc2CN2CC[C@@]1(c1ccccc1)C2', 'Criterion not met'),
  ('CN1Cc2ccccc2CN2CC[C@@]1(c1ccccc1)C2', 'Criterion met');

Attention now shifts to the item below.
# strict comparison: is reported ID50 < 20 mg/kg? input = `COc1cccc2c1CN1CC[C@@](c3ccccc3)(C1)N(C)C2`
Criterion met

* * *

# systemUnderTest: Mu-type opioid receptor (Homo sapiens, UniProt P35372)
# Sequence (P35372 whole entry): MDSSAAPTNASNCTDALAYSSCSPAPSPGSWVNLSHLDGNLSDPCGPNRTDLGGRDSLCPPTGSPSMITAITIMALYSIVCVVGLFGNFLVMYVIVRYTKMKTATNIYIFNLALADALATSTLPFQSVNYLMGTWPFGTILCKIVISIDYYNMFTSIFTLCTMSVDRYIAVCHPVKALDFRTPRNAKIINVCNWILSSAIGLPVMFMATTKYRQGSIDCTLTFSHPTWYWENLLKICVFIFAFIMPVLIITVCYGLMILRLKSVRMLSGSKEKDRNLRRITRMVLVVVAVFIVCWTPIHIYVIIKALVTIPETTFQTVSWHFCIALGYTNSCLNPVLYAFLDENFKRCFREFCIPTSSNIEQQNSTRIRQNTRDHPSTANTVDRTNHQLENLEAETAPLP
# assayProtocol: Agonist activity at human Gi/G0-coupled mu opioid receptor expressed in human U2OS cells co-expressing EA-tagged beta-arrestin2 assessed as beta-arrestin 2 recruitment by PathHunter assay
resultType: EC50

Take a look at these entries with their results.
INSERT INTO results (compound, resulttype, assayresult) VALUES
  ('CN1Cc2ccc(O)cc2CN2CC[C@@]1(c1ccccc1)C2', 'EC50', '2.4 µM'),
  ('CN(C)C(=O)CN1Cc2ccccc2CN2CC[C@@]1(c1ccccc1)C2', 'EC50', '> 20 µM'),
  ('CN1Cc2cc(O)ccc2CN2CC[C@@]1(c1ccccc1)C2', 'EC50', '> 20 µM'),
  ('CN1Cc2cccc(O)c2CN2CC[C@@]1(c1ccccc1)C2', 'EC50', '> 20 µM'),
  ('CC(=O)N1Cc2ccccc2CN2CC[C@@]1(c1ccccc1)C2', 'EC50', '> 20 µM');

Reported EC50 ( `COc1cccc2c1CN1CC[C@@](c3ccccc3)(C1)N(C)C2` ) = > 20 µM

Reported EC50 ( `CN1Cc2ccccc2CN2CC[C@@]1(c1ccccc1)C2` ) = > 20 µM

Reported EC50 ( `CCC(=O)N1Cc2ccccc2CN2CC[C@@]1(c1ccccc1)C2` ) = > 20 µM

Reported EC50 ( `OCCN1Cc2ccccc2CN2CC[C@@]1(c1ccccc1)C2` ) = > 20 µM

Reported EC50 ( `COc1cccc2c1CN(C)[C@@]1(c3ccccc3)CCN(C2)C1` ) = > 20 µM

* * *

# assayProtocol: Drug concentration in ddY mouse brain at 10 mg/kg; note: time not given here
# Format: ADME, organism-based
# conditionLabel: in vivo, read-out: Ct
Listed here: items and their measured concentration.
Field format: number, assumed µM, no unit text.

INSERT INTO results (testsmiles, assayresult) VALUES
  ('CN1Cc2ccccc2CN2CC[C@]1(c1ccccc1)C2', 15.6);

Reported concentration ( `CN1Cc2ccccc2CN2CC[C@@]1(c1ccccc1)C2` ) = 16.3

* * *

# assayProtocol: Drug concentration in ddY mouse brain at 30 mg/kg, sc; note: time not given here
# Format: ADME, organism-based
# conditionLabel: in vivo, read-out: Ct
resultType: concentration

INSERT INTO assay_data (testsmiles, assayresult) VALUES
  ('OCCN1Cc2ccccc2CN2CC[C@@]1(c1ccccc1)C2', '21.8 µM'),
  ('CN1Cc2c(O)cccc2CN2CC[C@@]1(c1ccccc1)C2', '18.9 µM'),
  ('CCC(=O)N1Cc2ccccc2CN2CC[C@@]1(c1ccccc1)C2', '8.4 µM'),
  ('c1ccc([C@@]23CCN(Cc4ccccc4CN2)C3)cc1', '49.2 µM'),
  ('COc1cccc2c1CN1CC[C@@](c3ccccc3)(C1)N(C)C2', '31.1 µM');

Reported concentration ( `CN1Cc2ccc(O)cc2CN2CC[C@@]1(c1ccccc1)C2` ) = 19.4 µM

Reported concentration ( `O=C1N[C@]2(c3ccccc3)CCN(Cc3ccccc31)C2` ) = 7.7 µM

Reported concentration ( `CN1Cc2cc(O)ccc2CN2CC[C@@]1(c1ccccc1)C2` ) = 8.33 µM

Reported concentration ( `CC(=O)N1Cc2ccccc2CN2CC[C@@]1(c1ccccc1)C2` ) = 6.3 µM

Reported concentration ( `CN1Cc2cccc(O)c2CN2CC[C@@]1(c1ccccc1)C2` ) = 13 µM

* * *

# assayProtocol: Plasma concentration in ddY mouse at 30 mg/kg, sc; note: time not given here
# Format: ADME, organism-based
# conditionLabel: in vivo
resultType: concentration

Take a look at these entries with their results.
INSERT INTO measurements (testsmiles, resulttype, assayresult) VALUES
  ('COc1ccc2c(c1)CN(C)[C@@]1(c3ccccc3)CCN(C2)C1', 'concentration', '730 nM'),
  ('CN1Cc2ccccc2CN2CC[C@]1(c1ccccc1)C2', 'concentration', '750 nM'),
  ('OCCN1Cc2ccccc2CN2CC[C@@]1(c1ccccc1)C2', 'concentration', '2700 nM'),
  ('CN1Cc2cc(O)ccc2CN2CC[C@@]1(c1ccccc1)C2', 'concentration', '740 nM'),
  ('O=C1N[C@@]2(c3ccccc3)CCN(Cc3ccccc31)C2', 'concentration', '4400 nM'),
  ('COc1cccc2c1CN(C)[C@@]1(c3ccccc3)CCN(C2)C1', 'concentration', '13400 nM'),
  ('CN1Cc2cccc(O)c2CN2CC[C@@]1(c1ccccc1)C2', 'concentration', '770 nM'),
  ('COc1cccc2c1CN1CC[C@@](c3ccccc3)(C1)N(C)C2', 'concentration', '3100 nM');

// below: concentration requested for another molecule
Reported concentration ( `COc1ccc2c(c1)CN1CC[C@@](c3ccccc3)(C1)N(C)C2` ) = 2200 nM
